Attribution: ChEMBL document CHEMBL3352414

assayTarget: Glycogen phosphorylase, muscle form (Oryctolagus cuniculus, UniProt P00489)
Sequence (P00489 whole entry): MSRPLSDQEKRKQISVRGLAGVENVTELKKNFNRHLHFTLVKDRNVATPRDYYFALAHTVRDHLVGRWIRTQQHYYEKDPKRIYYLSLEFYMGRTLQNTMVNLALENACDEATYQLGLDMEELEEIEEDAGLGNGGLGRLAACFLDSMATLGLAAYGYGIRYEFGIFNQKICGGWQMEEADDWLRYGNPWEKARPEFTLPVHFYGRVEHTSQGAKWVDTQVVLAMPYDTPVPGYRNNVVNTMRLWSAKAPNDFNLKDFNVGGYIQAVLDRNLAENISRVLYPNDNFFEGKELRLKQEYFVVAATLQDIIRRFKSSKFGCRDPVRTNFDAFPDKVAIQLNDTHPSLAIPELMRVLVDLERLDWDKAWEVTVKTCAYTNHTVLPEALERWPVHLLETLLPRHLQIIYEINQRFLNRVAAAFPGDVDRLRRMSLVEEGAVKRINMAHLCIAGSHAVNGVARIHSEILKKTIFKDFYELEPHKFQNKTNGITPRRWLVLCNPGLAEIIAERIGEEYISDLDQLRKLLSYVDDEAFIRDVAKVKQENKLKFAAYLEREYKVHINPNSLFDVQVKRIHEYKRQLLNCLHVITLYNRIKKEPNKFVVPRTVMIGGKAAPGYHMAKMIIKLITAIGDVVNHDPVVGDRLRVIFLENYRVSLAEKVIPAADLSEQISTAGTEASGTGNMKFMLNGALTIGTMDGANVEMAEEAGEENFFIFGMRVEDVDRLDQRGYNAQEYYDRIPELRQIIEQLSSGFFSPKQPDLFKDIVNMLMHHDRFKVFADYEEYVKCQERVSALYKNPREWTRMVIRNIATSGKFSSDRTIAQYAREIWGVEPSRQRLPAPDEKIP
protocolText: Inhibition of rabbit skeletal muscle glycogen phosphorylase b assessed as inorganic phosphate release
conditionSummary: read-out: Ki
Ki values, listed per item
measurementType: Ki (µM)

[
  {
    "lineNotation": "O=C(N[C@@H]1O[C@H](CO)[C@@H](O)[C@H](O)[C@H]1O)[C@H](O)[C@@H](O)[C@H](O)[C@H](O)CO",
    "assayTarget": "Glycogen phosphorylase, muscle form (Oryctolagus cuniculus, UniProt P00489)",
    "resultValue": 341
  },
  {
    "lineNotation": "CC(=O)N[C@@H]1O[C@H](CO)[C@@H](O)[C@H](O)[C@H]1O",
    "assayTarget": "Glycogen phosphorylase, muscle form (Oryctolagus cuniculus, UniProt P00489)",
    "resultValue": 32
  },
  {
    "lineNotation": "CC(C)c1ccc(C[C@H](C)C(=O)N[C@@H]2O[C@H](CO)[C@@H](O)[C@H](O)[C@H]2O)cc1",
    "assayTarget": "Glycogen phosphorylase, muscle form (Oryctolagus cuniculus, UniProt P00489)",
    "resultValue": 75.3
  },
  {
    "lineNotation": "O=C(Cn1cc(-c2ccccc2)nn1)N[C@@H]1O[C@H](CO)[C@@H](O)[C@H](O)[C@H]1O",
    "assayTarget": "Glycogen phosphorylase, muscle form (Oryctolagus cuniculus, UniProt P00489)",
    "resultValue": 180
  },
  {
    "lineNotation": "O=C(NC1CC1)C(=O)N[C@@H]1O[C@H](CO)[C@@H](O)[C@H](O)[C@H]1O",
    "assayTarget": "Glycogen phosphorylase, muscle form (Oryctolagus cuniculus, UniProt P00489)",
    "resultValue": 1410
  }
]

* * *

assayTarget: UniProt:P00489
protocolText: Inhibition of rabbit skeletal muscle glycogen phosphorylase b assessed as inorganic phosphate release
conditionSummary: read-out: Ki
Items are presented alongside their recorded Ki.
measurementType: Ki

[
  {
    "lineNotation": "O=C(Nc1ccccn1)C(=O)N[C@@H]1O[C@H](CO)[C@@H](O)[C@H](O)[C@H]1O",
    "measurementType": "Ki",
    "resultValue": "230 µM"
  },
  {
    "lineNotation": "O=C(N[C@@H]1O[C@H](CO)[C@@H](O)[C@H](O)[C@H]1O)C1CCCCC1",
    "measurementType": "Ki",
    "resultValue": "289 µM"
  },
  {
    "lineNotation": "CC(C)c1ccc(/C=C/C(=O)N[C@@H]2O[C@H](CO)[C@@H](O)[C@H](O)[C@H]2O)cc1",
    "measurementType": "Ki",
    "resultValue": "4.98 µM"
  },
  {
    "lineNotation": "O=C(/C=C/c1ccc(-c2ccccc2)cc1)N[C@@H]1O[C@H](CO)[C@@H](O)[C@H](O)[C@H]1O",
    "measurementType": "Ki",
    "resultValue": "5.14 µM"
  }
]

* * *

assayTarget: UniProt:P00489
protocolText: Inhibition of rabbit skeletal muscle glycogen phosphorylase b assessed as inorganic phosphate release
conditionSummary: read-out: Ki

[
  {
    "lineNotation": "O=C(O)C(=O)N[C@@H]1O[C@H](CO)[C@@H](O)[C@H](O)[C@H]1O",
    "measurementUnits": "µM",
    "Ki": 710
  },
  {
    "lineNotation": "O=C(Nc1ccccc1)N[C@@H]1O[C@H](CO)[C@@H](O)[C@H](O)[C@H]1O",
    "measurementUnits": "µM",
    "Ki": 18
  },
  {
    "lineNotation": "O=C(C#Cc1ccccc1)N[C@@H]1O[C@H](CO)[C@@H](O)[C@H](O)[C@H]1O",
    "measurementUnits": "µM",
    "Ki": 61
  },
  {
    "lineNotation": "O=C(Nc1ccccc1)C(=O)N[C@@H]1O[C@H](CO)[C@@H](O)[C@H](O)[C@H]1O",
    "measurementUnits": "µM",
    "Ki": 100
  },
  {
    "lineNotation": "CCOC(=O)C(=O)N[C@@H]1O[C@H](CO)[C@@H](O)[C@H](O)[C@H]1O",
    "measurementUnits": "µM",
    "Ki": 920
  },
  {
    "lineNotation": "COC(=O)c1ccc(C(=O)N[C@@H]2O[C@H](CO)[C@@H](O)[C@H](O)[C@H]2O)cc1",
    "measurementUnits": "µM",
    "Ki": 329
  }
]

* * *

protocolText: Permeability in human Caco2 cells
Type: ADME, cell-based
conditionSummary: Caco-2, read-out: permeability
Measured Papp, listed per entry.
measurementType: Papp (nm/s)

[
  {
    "lineNotation": "CC(C)(C)c1ccc(/C=C/C(=O)N[C@@H]2O[C@H](CO)[C@@H](O)[C@H](O)[C@H]2O)cc1",
    "resultValue": 87.7
  },
  {
    "lineNotation": "COc1ccc(/C=C/C(=O)N[C@@H]2O[C@H](CO)[C@@H](O)[C@H](O)[C@H]2O)c(O)c1",
    "resultValue": 38.9
  },
  {
    "lineNotation": "Cc1ccc2c(c1)C=C(C(=O)N[C@@H]1O[C@H](CO)[C@@H](O)[C@H](O)[C@H]1O)C(=O)C2",
    "resultValue": 36.2
  },
  {
    "lineNotation": "C[C@@H](Cc1ccc(C(C)(C)C)cc1)C(=O)N[C@@H]1O[C@H](CO)[C@@H](O)[C@H](O)[C@H]1O",
    "resultValue": 100
  },
  {
    "lineNotation": "CC(C)c1ccc(C[C@H](C)C(=O)N[C@@H]2O[C@H](CO)[C@@H](O)[C@H](O)[C@H]2O)cc1",
    "resultValue": 76.7
  },
  {
    "lineNotation": "Cc1ccc(-c2cnc(CCC(=O)N[C@@H]3O[C@H](CO)[C@@H](O)[C@H](O)[C@H]3O)o2)cc1",
    "resultValue": 54
  },
  {
    "lineNotation": "CC(C)(C(=O)N[C@@H]1O[C@H](CO)[C@@H](O)[C@H](O)[C@H]1O)c1cccc2ccccc12",
    "resultValue": 147
  },
  {
    "lineNotation": "O=C(C[C@H](c1ccc(Cl)cc1)C1CC1)N[C@@H]1O[C@H](CO)[C@@H](O)[C@H](O)[C@H]1O",
    "resultValue": 69.7
  },
  {
    "lineNotation": "CC(C)c1ccc(/C=C/C(=O)N[C@@H]2O[C@H](CO)[C@@H](O)[C@H](O)[C@H]2O)cc1",
    "resultValue": 98.5
  },
  {
    "lineNotation": "C[C@H](CC(=O)N[C@@H]1O[C@H](CO)[C@@H](O)[C@H](O)[C@H]1O)c1ccc(C(C)(C)C)cc1",
    "resultValue": 97.7
  },
  {
    "lineNotation": "COc1cc(/C=C/C(=O)N[C@@H]2O[C@H](CO)[C@@H](O)[C@H](O)[C@H]2O)cc(OC)c1",
    "resultValue": 80
  }
]
